Entries and their shrunken log2 fold change values follow.
tested on: Escherichia coli TOP10; assay: shrunken log2 fold change of peptide-encoding DNA abundance (4.5 h post-induction vs induction); higher = less antimicrobial activity (less host growth inhibition); conditions: time post-induction: 4.5 h; library: site-saturation at positions 5, 18, 19, 20;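 further: peptides expressed intracellularly from a pBAD plasmid library in pooled LB shake-flask culture, induced with 0.3% L-arabinose, DNA abundance read by NGS, three biological replicates, DESeq2 with apeglm shrinkage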
Experimental readout: shrunken log2 fold change

- RRIRHRPPRLPRPRPRPVDIPRP: -0.167
- RRIRLRPPRLPRPRPRPDCQPRP: 0.153
- RRIRTRPPRLPRPRPRPHINPRP: -0.454
- RRIRQRPPRLPRPRPRPDWMPRP: 0.0723
- RRIRARPPRLPRPRPRPGNWPRP: 0.346
- RRIRQRPPRLPRPRPRPHTKPRP: -0.213
- RRIRMRPPRLPRPRPRPVQGPRP: 0.0203
- RRIRKRPPRLPRPRPRPYWPPRP: -0.000778
- RRIRWRPPRLPRPRPRPYVQPRP: -0.0608
- RRIRIRPPRLPRPRPRPYCNPRP: -0.154
- RRIRIRPPRLPRPRPRPFFMPRP: -0.538
- RRIRNRPPRLPRPRPRPTSYPRP: 0.00322
- RRIRHRPPRLPRPRPRPIQVPRP: 0.000744
- RRIRVRPPRLPRPRPRPLLFPRP: -0.141
- RRIRSRPPRLPRPRPRPRIIPRP: -0.712

The origin of these recorded values is the supplement of paper PMC9112550.
